All values here come from patent US20110318339A1.

Reported ELISA absorbance at 450 nm values are given for each entry in this list.
- Experimental Target: T1, recombinant human DLL4 (Cat# 1506-D4/CF, R&D Systems) (human, UniProt Q9NR61 27-529)
- T1 construct: Bought protein; also called hDLL4; rHuman DLL4
- Protocol Summary: ELISA, DLL4 coated, Fab 6.25 nM
- Method: The plate was blocked by adding 1% BSA in Tris-buffered Saline Tween (TBST) and incubating for 1 hour at room temperature followed by washing 2 times with 150 μl TBST. A Fab antibody was serially diluted in 1% BSA in PBS. […] The reaction was immediately halted by the addition of 50 μl 0.5M H₂SO₄ and the absorbance at 450 nm was measured using an ELISA plate reader.
Expressed in A450, but write only the number.

Solved cases (2 shown):
>  <Binder>
Fab VH1-46_IGHD6-6*01_IGHJ1*01 S102A/S103P/S104F/H111F & L6_IGKJ1*01 S28N/S30D/S31H N53H (Fab, V domains shown, Fab made in E. coli: VH on CH1 with His6 and Flag tags (Plasmid A), VL on kappa CL (Plasmid C); also called H: APFF & L: NDH N53H) VH: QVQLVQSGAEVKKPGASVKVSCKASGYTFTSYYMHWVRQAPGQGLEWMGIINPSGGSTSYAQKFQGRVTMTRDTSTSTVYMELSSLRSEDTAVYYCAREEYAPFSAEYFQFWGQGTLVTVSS VL: EIVLTQSPATLSLSPGERATLSCRASQNVDHYLAWYQQKPGQAPRLLIYDASHRATGIPARFSGSGSGTDFTLTISSLEPEDFAVYYCQQRSNWPPWTFGQGTKVEIKR

>  <ELISA absorbance at 450 nm (A450)>
0.109

$$$$
>  <Binder>
Fab VH1-46_IGHD6-6*01_IGHJ1*01 S102A/S103P/S104F/H111F & L6_IGKJ1*01 S28N/S30D/S31H S52L (Fab, V domains shown, Fab made in E. coli: VH on CH1 with His6 and Flag tags (Plasmid A), VL on kappa CL (Plasmid C); also called H: APFF & L: NDH S52L) VH: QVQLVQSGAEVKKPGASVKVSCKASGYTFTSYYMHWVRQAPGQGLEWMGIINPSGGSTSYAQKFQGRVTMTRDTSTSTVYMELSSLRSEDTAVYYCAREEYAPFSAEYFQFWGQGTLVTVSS VL: EIVLTQSPATLSLSPGERATLSCRASQNVDHYLAWYQQKPGQAPRLLIYDALNRATGIPARFSGSGSGTDFTLTISSLEPEDFAVYYCQQRSNWPPWTFGQGTKVEIKR

>  <ELISA absorbance at 450 nm (A450)>
0.142

$$$$

Switching to the query record.
Kindly note the recorded ELISA absorbance at 450 nm for Fab VH1-46_IGHD6-6*01_IGHJ1*01 S102A/S103P/S104F/H111F & L6_IGKJ1*01 S28N/S30D/S31H A55G (Fab, V domains shown, Fab made in E. coli: VH on CH1 with His6 and Flag tags (Plasmid A), VL on kappa CL (Plasmid C); also called H: APFF & L: NDH A55G) VH: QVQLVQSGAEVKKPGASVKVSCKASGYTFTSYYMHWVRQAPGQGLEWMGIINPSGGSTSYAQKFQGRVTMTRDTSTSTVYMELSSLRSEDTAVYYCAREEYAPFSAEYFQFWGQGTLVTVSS VL: EIVLTQSPATLSLSPGERATLSCRASQNVDHYLAWYQQKPGQAPRLLIYDASNRGTGIPARFSGSGSGTDFTLTISSLEPEDFAVYYCQQRSNWPPWTFGQGTKVEIKR , which is 0.125
